# assay method text: PK of topical ocular sodium phosphate-based Gel Drop, concentrations 1 hour after last dose
# Type: in vivo, Dutch-belted rabbits
# conditions: Dutch-belted, rabbit, retina, 2 mg/ml, pH 6, 2 mg/ml pH 6.0 Phos 0.05% BAK 0.005% Gly 2%, 3x/day 5 days, read-out: Mean [retina]
measured property: concentration at 1 h
Remember to put the unit after the number in your answer.

**Q:** Item under review: Cl.NC(=O)c1c(OCc2c(F)cc(Br)cc2F)nsc1NC(=O)NCCCCN1CCCC1 [Compound-I, hydrochloride] . Reported concentration at 1 h?
**A:** 113 nM

* * *

# assay method text: 1- to 5-day PK, topical ocular Compound-I formulations of Table 8A, 30 μL bilateral dose
# Assay type: in vivo, Dutch Belted rabbits
# conditions: Dutch Belted, rabbit, cornea, topical, 30 μL bilateral; Group 2 q.d., 24 hr post day 5 morning dose
measured property: concentration at 24 h

**Q:** Item under review: Cl.NC(=O)c1c(OCc2c(F)cc(Br)cc2F)nsc1NC(=O)NCCCCN1CCCC1 [Compound-I, hydrochloride] . Reported concentration at 24 h?
**A:** 29.7 µM

* * *

# assay method text: PK of topical ocular sodium phosphate-based Gel Drop, concentrations 1 hour after last dose
# Format: in vivo, Dutch-belted rabbits
# conditions: Dutch-belted, rabbit, aqueous humor (AH), 1 mg/ml, pH 6, 1 mg/ml pH 6.0 Phos 0.05% BAK 0.005% Gly 2% PS80 0.01% Tylox 0.2%, 3x/day 5 days, read-out: Mean [AH]
measured property: concentration at 1 h (nM)
Write the value in nM as a bare number.

**Q:** Item under review: Cl.NC(=O)c1c(OCc2c(F)cc(Br)cc2F)nsc1NC(=O)NCCCCN1CCCC1 [Compound-I, hydrochloride] . Reported concentration at 1 h?
**A:** 9.09

* * *

# assay method text: PK of topical ocular sodium phosphate-based Gel Drop, concentrations 1 hour after last dose
# Type: in vivo, Dutch-belted rabbits
# conditions: Dutch-belted, rabbit, choroid, 6 mg/ml, pH 6.1, 6 mg/ml pH 6.1 Phos 0.05% BAK 0.005% Gly 2% PS80 1% Tylox 0.1% Osmo 248, 3x/day 5 days, read-out: MEAN [choroid]
measured property: concentration at 1 h (nM)
Write the value in nM as a bare number.

**Q:** Item under review: Cl.NC(=O)c1c(OCc2c(F)cc(Br)cc2F)nsc1NC(=O)NCCCCN1CCCC1 [Compound-I, hydrochloride] . Reported concentration at 1 h?
**A:** 779

* * *

# assay method text: PK of topical ocular sodium phosphate-based Gel Drop, concentrations 1 hour after last dose
# Format: in vivo, Dutch-belted rabbits
# conditions: Dutch-belted, rabbit, AH (aqueous humor), 2 mg/ml, pH 6, 2 mg/ml pH 6.0 Phos 0.02% BAK 0.005% Gly 2% PS80 1% Tylox 0.2%, 3x/day 5 days, read-out: Mean [AH]
measured property: concentration at 1 h (nM)
Write the value in nM as a bare number.

**Q:** Item under review: Cl.NC(=O)c1c(OCc2c(F)cc(Br)cc2F)nsc1NC(=O)NCCCCN1CCCC1 [Compound-I, hydrochloride] . Reported concentration at 1 h?
**A:** 13.8

* * *

# assay method text: PK of topical ocular sodium phosphate-based Gel Drop, concentrations 1 hour after last dose
# Assay type: in vivo, Dutch-belted rabbits
# conditions: Dutch-belted, rabbit, plasma, 2 mg/ml, pH 6, 2 mg/ml pH 6 Phos 0.05% BAK 0.005% Gly 2% PS80 1% Osmo 261, 3x/day 5 days, read-out: [plasma]
measured property: concentration at 1 h (nM)
Write the value in nM as a bare number.

**Q:** Item under review: Cl.NC(=O)c1c(OCc2c(F)cc(Br)cc2F)nsc1NC(=O)NCCCCN1CCCC1 [Compound-I, hydrochloride] . Reported concentration at 1 h?
**A:** 4.15

* * *

# assay method text: PK of topical ocular sodium phosphate-based Gel Drop, concentrations 1 hour after last dose
# Format: in vivo, Dutch-belted rabbits
# conditions: Dutch-belted, rabbit, aqueous humor (AH), 1 mg/ml, pH 6, 1 mg/ml pH 6 Phos 0.05% BAK 0.005% Gly 2%, 3x/day 5 days, read-out: Mean [AH]
# Excerpt: The Gel Drop of Compound-I was applied to eyes of Dutch-belted rabbits.
measured property: concentration at 1 h (nM)
Write the value in nM as a bare number.

**Q:** Item under review: Cl.NC(=O)c1c(OCc2c(F)cc(Br)cc2F)nsc1NC(=O)NCCCCN1CCCC1 [Compound-I, hydrochloride] . Reported concentration at 1 h?
**A:** 16.4

* * *

# assay method text: PK of topical ocular sodium phosphate-based Gel Drop, concentrations 1 hour after last dose
# Type: in vivo, Dutch-belted rabbits
# conditions: Dutch-belted, rabbit, retina, 1 mg/ml, pH 6, 1 mg/ml pH 6.0 Phos 0.2% BAK 0.005% Gly 2%, 3x/day 5 days, read-out: Mean [retina]
measured property: concentration at 1 h (nM)
Write the value in nM as a bare number.

**Q:** Item under review: Cl.NC(=O)c1c(OCc2c(F)cc(Br)cc2F)nsc1NC(=O)NCCCCN1CCCC1 [Compound-I, hydrochloride] . Reported concentration at 1 h?
**A:** 90.8

* * *

# assay method text: PK of topical ocular sodium phosphate-based Gel Drop, concentrations 1 hour after last dose
# Assay type: in vivo, Dutch-belted rabbits
# conditions: Dutch-belted, rabbit, AH (aqueous humor), 2 mg/ml, pH 6, 2 mg/ml pH 6 Phos 0.05% BAK 0.005% Gly 2% PS80 1% Osmo 261, 3x/day 5 days, read-out: Mean [AH]
# Text: The Gel Drop of Compound-I was applied to eyes of Dutch-belted rabbits.
measured property: concentration at 1 h (nM)
Write the value in nM as a bare number.

**Q:** Item under review: Cl.NC(=O)c1c(OCc2c(F)cc(Br)cc2F)nsc1NC(=O)NCCCCN1CCCC1 [Compound-I, hydrochloride] . Reported concentration at 1 h?
**A:** 25.5

* * *

# assay method text: PK of topical ocular sodium phosphate-based Gel Drop, concentrations 1 hour after last dose
# Type: in vivo, Dutch-belted rabbits
# conditions: Dutch-belted, rabbit, AH (aqueous humor), 6 mg/ml, pH 5.9, 6 mg/ml pH 5.9 Phos 0.1% BAK 0.005% Gly 2% Polox 0.2% Osmo 257, 3x/day 4 days, read-out: Mean [AH]
measured property: concentration at 1 h
Remember to put the unit after the number in your answer.

**Q:** Item under review: Cl.NC(=O)c1c(OCc2c(F)cc(Br)cc2F)nsc1NC(=O)NCCCCN1CCCC1 [Compound-I, hydrochloride] . Reported concentration at 1 h?
**A:** 55.4 nM

* * *

# assay method text: PK of topical ocular sodium phosphate-based Gel Drop, concentrations 1 hour after last dose
# Format: in vivo, Dutch-belted rabbits
# conditions: Dutch-belted, rabbit, AH (aqueous humor), 6 mg/ml, pH 5.9, 6 mg/ml pH 5.9 Phos 0.05% BAK 0.005% Gly 2% PS80 1% Tylox 0.1% Polox 0.2% Osmo 270, 3x/day 4 days, read-out: Mean [AH]
# From the text: The Gel Drop of Compound-I was applied to eyes of Dutch-belted rabbits.
measured property: concentration at 1 h (nM)
Write the value in nM as a bare number.

**Q:** Item under review: Cl.NC(=O)c1c(OCc2c(F)cc(Br)cc2F)nsc1NC(=O)NCCCCN1CCCC1 [Compound-I, hydrochloride] . Reported concentration at 1 h?
**A:** 222

* * *

# assay method text: PK of topical ocular sodium phosphate-based Gel Drop, concentrations 1 hour after last dose
# Type: in vivo, Dutch-belted rabbits
# conditions: Dutch-belted, rabbit, retina, 2 mg/ml, pH 6, 2 mg/ml pH 6.0 Phos 0.1% BAK 0.005% Gly 2%, 3x/day 5 days, read-out: Mean [retina]
measured property: concentration at 1 h (nM)
Write the value in nM as a bare number.

**Q:** Item under review: Cl.NC(=O)c1c(OCc2c(F)cc(Br)cc2F)nsc1NC(=O)NCCCCN1CCCC1 [Compound-I, hydrochloride] . Reported concentration at 1 h?
**A:** 42.9

* * *

# assay method text: PK of topical ocular sodium phosphate-based Gel Drop, concentrations 1 hour after last dose
# Type: in vivo, Dutch-belted rabbits
# conditions: Dutch-belted, rabbit, retina, 2 mg/ml, pH 6, 2 mg/ml pH 6.0 Phos 0.05% BAK 0.005% Gly 2% PS80 1% Tylox 0.2%, 3x/day 5 days, read-out: Mean [retina]
measured property: concentration at 1 h (nM)
Write the value in nM as a bare number.

**Q:** Item under review: Cl.NC(=O)c1c(OCc2c(F)cc(Br)cc2F)nsc1NC(=O)NCCCCN1CCCC1 [Compound-I, hydrochloride] . Reported concentration at 1 h?
**A:** 85.7

* * *

# assay method text: PK of topical ocular sodium phosphate-based Gel Drop, concentrations 1 hour after last dose
# Format: in vivo, Dutch-belted rabbits
# conditions: Dutch-belted, rabbit, choroid, 4 mg/ml, pH 6, 4 mg/ml pH 6.0 Phos 0.2% BAK 0.005% Gly 2%, 3x/day 5 days, read-out: MEAN [choroid]
# Description: The Gel Drop of Compound-I was applied to eyes of Dutch-belted rabbits.
measured property: concentration at 1 h

**Q:** Item under review: Cl.NC(=O)c1c(OCc2c(F)cc(Br)cc2F)nsc1NC(=O)NCCCCN1CCCC1 [Compound-I, hydrochloride] . Reported concentration at 1 h?
**A:** 596 nM
